The reported numbers originate from ChEMBL document CHEMBL5058577.

Test system: HEK-293T
Test: Multiplex assay against HEK293T
Assay type: toxicity, cell-based
Settings: human, 12 h, 10 µM, compound concentration 10 uM, replicate 1
Kindly supply the reported Population Hoechst High Intensity Objects (%) values for the records listed here.
Answers are plain numbers, in %.

Use the examples below as a reference point.
1) C[C@H]1[C@H]2CC[C@H]3[C@@H]4CC=C5C[C@@H](N(C)C)CC[C@]5(C)[C@H]4CC[C@]23CN1C [CONESSINE] :: 6
2) O=C1COc2nccc(-c3ccccc3F)c2CN1Cc1cc(C(F)(F)F)cc(C(F)(F)F)c1 :: 9
3) Cc1ccc(F)cc1C(=O)Nc1ccc(C(=O)N2Cc3cccn3Cc3ccccc32)c(Cl)c1 [LIXIVAPTAN] :: 10
4) COc1ccc2c(c1)C(C(=O)N(Cc1ccc(N(C)C)cc1)c1ccc(C(C)C)cc1)CCC2.Cl (stereo not given) :: 10

Now for another entry.
Query :: Would you kindly share the measured Population Hoechst High Intensity Objects (%) for "CN1CCN(c2nc3cc(C(F)(F)F)ccc3n3cccc23)CC1.O=C(O)/C=C\C(=O)O.O=C(O)/C=C\C(=O)O" ?
Result :: 14

----------
Exercise: for every item that follows, state its recorded Population Mitotic Cells (%).
System: Fibroblast
Assay: Multiplex assay against human fibroblast
Assay type: toxicity, cell-based
Settings: 48 h, 10 µM, compound concentration 10 uM, replicate 1
Answers are plain numbers, in %.

Study these solved cases before continuing.
1) CN(C)CCCc1cc(C(=O)Nc2ccc(-c3ccncc3)cc2)ccc1O.Cl.Cl :: 43
2) CC1(COc2ccc3c(c2)ncn3-c2ccc3cccc(N4CCC(N)CC4)c3n2)COC1 [CRENOLANIB] :: 57

Batch request: Population Mitotic Cells (%) per item, same order as input.
1. N#Cc1c(N)nc(SCc2csc(-c3ccc(Cl)cc3)n2)c(C#N)c1-c1ccc(OCCO)cc1 [CAPADENOSON]
2. Cc1ccc(C(C)(O)c2nc3ccccc3s2)c(C)c1 (stereo unspecified)
3. O=C(O)Cc1ccccc1Nc1c(Cl)cccc1Cl [DICLOFENAC]
4. O=S(=O)(c1ccccc1)c1cnc2c(N3CCNCC3)cccc2c1 [INTEPIRDINE]

Result ::
1: 18; 2: 46; 3: 26; 4: 36

----------
System: HEK-293T
Test: Multiplex assay against HEK293T
Type: toxicity, cell-based
Conditions: human, 24 h, 10 µM, compound concentration 10 uM, replicate 1
Kindly supply the reported Population Pyknosed Nuclei (%) values for the records listed here.
Give bare numbers, in %.

Consider the worked cases shown below.
1) N[C@@]1(C(=O)O)CO[C@H]2[C@H](C(=O)O)[C@H]21 :: 9
2) Cl.Clc1ccc2nsnc2c1NC1=NCCN1 [TIZANIDINE HYDROCHLORIDE] :: 9
3) COc1cc(C(=O)N(CCCc2ccccc2)Cc2ccc(CC(=O)O)cc2)cc(OC)c1C :: 12
4) CN(C)CCCc1cc(C(=O)Nc2ccc(-c3ccncc3)cc2)ccc1O.Cl.Cl :: 9
5) COc1c(C)cc(NC(=O)c2nn(Cc3ccc(F)cc3)c3c2CN(C(=O)c2ccc[nH]2)C[C@]3(C)C(N)=O)cc1C :: 19

// for each molecule below, give its Population Pyknosed Nuclei (%)
1. Cc1ccccc1C(=O)Nc1ccc(C(=O)N2CCCC(N(C)C)c3ccccc32)cc1.Cl (centres undefined)
2. CCNC1(C(N)=O)CCN(c2ncnc3c2nc(-c2ccccc2Cl)n3-c2ccc(Cl)cc2)CC1
3. CN1CCN2c3ncccc3Cc3ccccc3C2C1 (centres undefined)
4. CNC[C@H](O)c1ccc(O)c(O)c1 [EPINEPHRINE]

Result ::
1. 21
2. 19
3. 12
4. 11

----------
Test system: HEK-293T
Assay: Multiplex assay against HEK293T
Type: toxicity, cell-based
Details: human, 24 h, 10 µM, compound concentration 10 uM, replicate 1
I would appreciate it if you labelled entries satisfied when Population Mitochondria Different-Phenotype (%) is 40% or higher, otherwise not satisfied.

1. COc1ccc2c(c1)C(C(=O)N(Cc1ccc(N(C)C)cc1)c1ccc(C(C)C)cc1)CCC2.Cl (configuration not stated) :: satisfied
2. CC1(COc2ccc3c(c2)ncn3-c2ccc3cccc(N4CCC(N)CC4)c3n2)COC1 :: satisfied
3. N#Cc1c(N)nc(SCc2csc(-c3ccc(Cl)cc3)n2)c(C#N)c1-c1ccc(OCCO)cc1 :: satisfied

API: the following record is the query input.
Query :: Answer whether Population Mitochondria Different-Phenotype (%) of "CCOc1c2c(c(OCC)c3ncccc13)CN(c1ccc(CS(=O)(=O)NC(=O)Cc3ccccc3OC)cc1C)C2=O" is greater than or equal to 40%.
Result :: not satisfied

----------
System: U2OS
Assay: Multiplex assay against U2OS
Format: toxicity, cell-based
Conditions: human, 48 h, 10 µM, compound concentration 10 uM, replicate 1
Hi there, I'd appreciate the recorded Population Membrane Permeable-Phenotype (%) for every entry that follows.
Numbers only, in %.

Take each entry in turn and give its Population Membrane Permeable-Phenotype (%).
1. CN(C)CCCc1cc(C(=O)Nc2ccc(-c3ccncc3)cc2)ccc1O.Cl.Cl
2. CC(=O)NCCc1c(Cc2ccccc2)[nH]c2ccccc12 [LUZINDOLE]
3. C[C@H](NC(=O)c1c(C(F)F)nn(C)c1Oc1cccc(C(F)(F)F)c1)c1ccc(C(=O)O)cc1 [PALUPIPRANT]

Result ::
1: 5; 2: 6; 3: 5

Parameters: items (list). Returns: Population Membrane Permeable-Phenotype (%) for each item.
1. Cc1ccc(C(C)(O)c2nc3ccccc3s2)c(C)c1 (stereo not given)
2. CCCC(CCC)C(=O)O [VALPROIC ACID]
3. COc1cc(C(=O)N(CCCc2ccccc2)Cc2ccc(CC(=O)O)cc2)cc(OC)c1C
4. CCNC1(C(N)=O)CCN(c2ncnc3c2nc(-c2ccccc2Cl)n3-c2ccc(Cl)cc2)CC1 [OTENABANT]
5. Cc1ccc(/C(=C\CN2CCCC2)c2ccccn2)cc1 [TRIPROLIDINE]

Result ::
1: 6; 2: 3; 3: 4; 4: 49; 5: 11

Look at each compound and report its Population Membrane Permeable-Phenotype (%).
1. CCCn1c(=O)c2[nH]c(C3CCCC3)nc2n(CCC)c1=O
2. COc1ccc2c(c1)C(C(=O)N(Cc1ccc(N(C)C)cc1)c1ccc(C(C)C)cc1)CCC2.Cl (stereo not given)

Result ::
1. 4
2. 43

----------
System: HEK-293T
Test: Multiplex assay against HEK293T
Format: toxicity, cell-based
Details: human, 24 h, 10 µM, compound concentration 10 uM, replicate 1
PROPERTY: Total Cell Count
Numbers only.

Previously resolved entries follow.
1) CN1CCN2c3ncccc3Cc3ccccc3C2C1 (stereo not drawn) :: 274
2) COc1cc(NC(=O)CCN2CCC(OC(=O)Nc3ccccc3-c3ccccc3)CC2)c(Cl)cc1CNC[C@H](O)c1ccc(O)c2[nH]c(=O)ccc12 :: 12
3) O=C(NCCO)c1cccc(-c2cc(Nc3ccc(OC(F)(F)F)cc3)ncn2)c1 :: 447
4) O=C(O)Cc1ccccc1Nc1c(Cl)cccc1Cl :: 650
5) COc1c(C)cc(NC(=O)c2nn(Cc3ccc(F)cc3)c3c2CN(C(=O)c2ccc[nH]2)C[C@]3(C)C(N)=O)cc1C :: 403

Hi, could you look up Total Cell Count for each item in my list?
1. CSCC[C@H](NC=O)C(=O)N[C@@H](CC(C)C)C(=O)N[C@@H](Cc1ccccc1)C(=O)O
2. Cl.Clc1ccc2nsnc2c1NC1=NCCN1 [TIZANIDINE HYDROCHLORIDE]
3. CN(C)c1ccnc2sc3c(=O)n(N4CCCCCC4)cnc3c12
4. C[C@H]1[C@H]2CC[C@H]3[C@@H]4CC=C5C[C@@H](N(C)C)CC[C@]5(C)[C@H]4CC[C@]23CN1C

Result ::
479
621
428
572

Here are 8 molecules. What values of Total Cell Count were reported for them?
1. N[C@@]1(C(=O)O)CO[C@H]2[C@H](C(=O)O)[C@H]21
2. COc1ccc2c(c1)C(C(=O)N(Cc1ccc(N(C)C)cc1)c1ccc(C(C)C)cc1)CCC2.Cl (stereo not drawn)
3. Cc1ccc(F)cc1C(=O)Nc1ccc(C(=O)N2Cc3cccn3Cc3ccccc32)c(Cl)c1
4. O=S(=O)(c1ccccc1)c1cnc2c(N3CCNCC3)cccc2c1 [INTEPIRDINE]
5. CCNC1(C(N)=O)CCN(c2ncnc3c2nc(-c2ccccc2Cl)n3-c2ccc(Cl)cc2)CC1
6. CCCN1CCC[C@@H]2Cc3n[nH]cc3C[C@H]21.Cl [QUINPIROLE HYDROCHLORIDE]
7. Oc1c(CN2CCN(c3ccccn3)CC2)cc(Cl)c2cccnc12
8. CC(C)(C)c1ccc(S(=O)(=O)Nc2ccc(Cl)cc2C(=O)c2cc[n+]([O-])cc2)cc1

Result ::
1: 551; 2: 409; 3: 392; 4: 439; 5: 452; 6: 529; 7: 227; 8: 594

Query :: // returns reported Total Cell Count for input "CCCn1c(=O)c2[nH]c(C3CCCC3)nc2n(CCC)c1=O"
Result :: 379
